FYI, the data here is from paper PMC4515242.

# Experimental Target: native state (Fe3+) of hMPO (Homo sapiens)
# Construct: purchased Athens Research and Technology
# Procedure Summary: Low temperature ESR binding assay (binding-induced g shift, Rrelative)
# Recorded Conditions: electronic g value of the bound complex, X-band ESR, 5 K
Assay Metric: g X

# example entries with known answers
Exercise: Query the reported g X for native state (Fe3+) of hMPO (Homo sapiens); item: Sc1nnc(-c2cccnc2)o1 [LSN811183]
Solution: 6.924

Exercise: Query the reported g X for native state (Fe3+) of hMPO (Homo sapiens); item: Cc1cc(C(F)(F)F)c(C#N)c(=O)[nH]1 [LSN131429]
Solution: 6.559

Exercise: Query the reported g X for native state (Fe3+) of hMPO (Homo sapiens); item: Fc1ccccc1-c1n[nH]c(=S)o1 [LSN2303506]
Solution: 6.9749

Exercise: Query the reported g X for native state (Fe3+) of hMPO (Homo sapiens); item: O=C(O)c1n[nH]c2ccccc12 [LSN23500]
Solution: 6.789

Exercise: Query the reported g X for native state (Fe3+) of hMPO (Homo sapiens); item: O=[N+]([O-])c1c(O)ncnc1O [LSN106019]
Solution: 7.023

Next:
Exercise: Query the reported g X for native state (Fe3+) of hMPO (Homo sapiens); item: O=C(O)c1n[nH]c(-c2ccccc2)c1O [LSN87637]
Solution: 6.917

Exercise: Query the reported g X for native state (Fe3+) of hMPO (Homo sapiens); item: O=C(O)c1nn(-c2cccc3ccccc23)cc1O [LSN2944556]
Solution: 7.0681

Exercise: Query the reported g X for native state (Fe3+) of hMPO (Homo sapiens); item: O=C(O)c1nn(-c2ccccc2)cc1O [LSN17948]
Solution: 6.995

* * *

# Experimental Target: native state (Fe3+) of hMPO (Homo sapiens, UniProt P05164)
# Construct: purchased Athens Research and Technology
# Sequence (P05164 49-745): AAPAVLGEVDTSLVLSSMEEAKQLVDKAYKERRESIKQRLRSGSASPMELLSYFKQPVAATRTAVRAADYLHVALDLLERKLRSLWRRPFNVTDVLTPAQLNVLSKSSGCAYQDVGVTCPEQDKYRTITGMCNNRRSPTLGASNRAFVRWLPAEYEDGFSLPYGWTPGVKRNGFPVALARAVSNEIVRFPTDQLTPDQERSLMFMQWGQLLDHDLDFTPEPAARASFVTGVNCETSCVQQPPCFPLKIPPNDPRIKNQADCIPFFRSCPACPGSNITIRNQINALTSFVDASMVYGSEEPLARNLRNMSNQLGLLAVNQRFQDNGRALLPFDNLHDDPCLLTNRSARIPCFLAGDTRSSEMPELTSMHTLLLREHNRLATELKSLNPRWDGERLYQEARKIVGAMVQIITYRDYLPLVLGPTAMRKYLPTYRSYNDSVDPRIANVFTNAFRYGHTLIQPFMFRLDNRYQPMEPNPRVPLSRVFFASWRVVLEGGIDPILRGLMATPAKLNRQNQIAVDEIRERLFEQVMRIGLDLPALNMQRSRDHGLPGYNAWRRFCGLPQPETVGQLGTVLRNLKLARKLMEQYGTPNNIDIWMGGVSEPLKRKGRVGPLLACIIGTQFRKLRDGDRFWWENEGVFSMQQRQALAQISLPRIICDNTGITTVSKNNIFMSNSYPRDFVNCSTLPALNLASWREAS
# Procedure Summary: Low temperature ESR binding assay (binding-induced g shift, Rrelative)
# Recorded Conditions: class by Rrelative; inhibitor:MPO 40:1
Assay Metric: ESR Binding

Exercise: Dear colleague, I am looking for the recorded ESR Binding of the following molecule: O=C1CC(c2ccc(Cl)cc2)=NN1 [LSN34893]
Solution: No

Exercise: Dear colleague, I am looking for the recorded ESR Binding of the following molecule: NC(=O)c1n[nH]cc1O [LSN104607]
Solution: No

* * *

# Experimental Target: Human Myeloperoxidase (Homo sapiens)
# Construct: purchased Lee Biosciences 426-10
# Sequence (P05164 49-745): as above
# Procedure Summary: X-ray co-crystal growth by soaking MPO crystals with inhibitor
# Recorded Conditions: crystals soaked with 50 mM inhibitor
Assay Metric: X ray Cocrystal result

# example entries with known answers
Exercise: Dear colleague, I am looking for the recorded X ray Cocrystal result of the following compound: O=C(O)c1nn(-c2ccccc2)cc1O [LSN17948]
Solution: Yes

Exercise: Dear colleague, I am looking for the recorded X ray Cocrystal result of the following compound: O=[N+]([O-])c1c(O)ncnc1O [LSN106019]
Solution: Yes

Exercise: Dear colleague, I am looking for the recorded X ray Cocrystal result of the following compound: O=C(O)c1n[nH]c(-c2ccccc2)c1O [LSN87637]
Solution: Yes

Exercise: Dear colleague, I am looking for the recorded X ray Cocrystal result of the following compound: Oc1n[nH]c2c1CCC2 [LSN386639]
Solution: No

Next:
Exercise: Dear colleague, I am looking for the recorded X ray Cocrystal result of the following compound: NC(=O)c1n[nH]cc1O [LSN104607]
Solution: No

Exercise: Dear colleague, I am looking for the recorded X ray Cocrystal result of the following compound: Cc1cc(C(F)(F)F)c(C#N)c(=O)[nH]1 [LSN131429]
Solution: Yes
